- Assay text: cytotoxicity to Vero cells
- Type: cell-based
- Condition info: African green monkey, Vero cells (kidney fibroblast)
Recorded endpoint: IC50 at 48 h

Per the record, C=C1C(O)CC2[C@](C)(CCC[C@]2(C)C(=O)O)C1CC(=O)O (stereo partly shown) [Compound 13] has IC50 at 48 h of > 4.76 µg/mL

---

- Assay text: cytotoxicity to SK-OV-3 cells
- Format: cell-based
- Condition info: human
Recorded endpoint: IC50 at 48 h

Per the record, C[C@@]12CC[C@@H](O)[C@]3(C)C(=O)O[C@H](C=C4COC(=O)C=C41)C23 (stereo partly drawn) has IC50 at 48 h of > 10 µg/mL

Per the record, C[C@]12C=CC[C@]3(C)C(=O)O[C@@H](C13)[C@H]1O[C@]13COC(=O)C=C32 (stereo partly drawn) has IC50 at 48 h of > 10 µg/mL

Per the record, C[C@]12CC[C@@H](O)[C@]3(C)C(=O)O[C@@H](C13)[C@H]1O[C@]13COC(=O)C=C32 (stereo partly drawn) has IC50 at 48 h of > 10 µg/mL

Provenance of the data: paper PMC2856487
